Read-out: Tissue Factor, F3 (gene 2152)
Assay: BSK_LPS_TissueFactor: BioMAP Diversity Plus: LPS Assay for Tissue Factor Biomarker Activity (AID 2283084)
Conditions: primary human HUVEC with PBMC; actives raise or lower the signal
Active and inactive are the calls of the source. The calls were made as follows: active = hit-call score of the fitted dose curve at least 0.9, where 1 is the maximum; inactive = score below 0.9.
Your answer must be one of the following: 1 = active, -1 = inactive

Assay result, entry Cc1ccc(O)c(C(C)(C)C)c1 — outcome?
1

Hey, what did the test say about COC(=O)c1ccc(C)cc1 ?
-1

Assay outcome for CCCCC/C=C/C=C/C=O : what was it?
1

Could you check what this test reported for CC(C)(COC(=O)c1ccccc1)COC(=O)c1ccccc1 ?
-1

###

Target: CCAAT/enhancer-binding protein beta (Homo sapiens)
Assay: ATG_C_EBP_CIS: Attagene CIS-FACTORIAL HepG2 Assay for human CCAAT/Enhancer Binding Protein (C/EBP) beta (AID 2282927)
Details: HepG2 Attagene cis-factorial transcription factor reporter; actives raise or lower the signal
Active and inactive are the calls of the source. Rule for the calls: active = hit-call score of the fitted dose curve at least 0.9, where 1 is the maximum; inactive = score below 0.9.
Pick from y (active), n (inactive) when you respond.

For CC(C)(C)NC(N)=O , which call appears in the assay record?
n

Please let me know the test result on file for CC(CC(C)(C)C)CC(C)(C)CC(C)(C)C (stereo unspecified) .
n

Hi, sorry to bother you, what did the test record for CCCCCCCCCCC(CO)CCCCCCCC (stereo unspecified) ?
n

For CNC(=O)Oc1ccc2c(c1)[C@]1(C)CCN(C)[C@@H]1N2C , which call appears in the assay record?
n

How did this test come out for CCCCCCCCCCCCN ?
n

Record request — test call for CC1(C)C(=O)N(Br)C(=O)N1Cl
n

How was CCCCCCCCCCCCSC classified in this test?
n

Outcome? CCC(C)(O)CCC=C(C)C (stereo unspecified)
n

I would be grateful if you could indicate the recorded call for OCc1cccnc1 .
n

What is the recorded call for this compound in the test? C=C(C)[C@@H]1CC[C@@H](C)C[C@@H]1O
n

Hi, do you know how OCC(CO)(CO)COCC(CO)(CO)CO came out in this test?
n

In this assay, the call recorded for CCCCCCCCCOC(C)=O was what?
n

Could you please tell me the result logged for CC(CN1c2ccccc2Sc2ccccc21)N(C)C (stereo unspecified) in this assay?
n

What call does the record list for O=C(COc1ccc(Cl)cc1)N1CCN(Cc2ccc3c(c2)OCO3)CC1 ?
n

Field: outcome | Entry: CCC(=O)OCc1ccccc1
n

Which outcome did this test record for the compound C=C[C@@H](C)CCC=C(C)C ?
n

Can you look up the reported call for c1cc(C(c2ccc(OCC3CO3)cc2)c2ccc(OCC3CO3)cc2)ccc1OCC1CO1 (stereo unspecified) for me?
n

What call does the record list for CCCC1CCC(=O)O1 (stereo unspecified) ?
n

Look up the recorded call for C=C(C)C(=O)O in this test.
n

Name the outcome recorded for Cc1ccc(C(C)C)cc1O in the assay.
n

What classification did Cc1ccc(C=O)cc1 end up with in this test?
n

Recorded test call requested for C[Si](O[Si](C)(C)C)O[Si](C)(C)C
n

Per the assay record, what outcome was assigned to NCCNCCN ?
n

// outcome(item) with item = CCCCNC(=O)NS(=O)(=O)c1ccc(N)cc1
n

Kindly provide the recorded test outcome for the following compound: COc1cccc(OC)c1
n

Hi, do you know how Clc1nc(C(Cl)(Cl)Cl)c(Cl)c(Cl)c1Cl came out in this test?
n

Record request — test call for COC(C(=O)O)c1ccccc1 (stereo unspecified)
n

Assay outcome for O=C(Cl)c1cccc(C(=O)Cl)c1 : what was it?
n

Please let me know the test result on file for CCCCCCCCCCCCCC(=O)O .
n

Recorded call for Cc1ccc2ccccc2n1 ?
n

For this compound, state the assay outcome: CC(CCO)CCCC(C)(C)O (stereo unspecified)
n

Please state the recorded outcome for this compound: CCCCCCCCCCCCCOS(=O)(=O)O
n

Call for entry CC(=O)OCC=Cc1ccccc1 :
n

Assay outcome for COC(=O)OC : what was it?
n

State the result this test recorded for O=C(O)c1snc(Cl)c1Cl .
n

Hey, what did the test say about CNC[C@H](O)c1cccc(O)c1 ?
n

Can you look up the reported call for O=C1CCCCCCCCCCCCCCO1 for me?
n

# fetch the recorded call for CC(C)C(C)(C)C(C)(C)C(C)(C)S here
n

Assay outcome for Cc1ccc(Nc2ccc(O)c3c2C(=O)c2ccccc2C3=O)cc1 : what was it?
n

Dear colleague, could you share the recorded outcome for Nc1nc2ccc([N+](=O)[O-])cc2s1 when you have a moment?
n

Answer briefly: the call reported for Clc1ccc2c(c1)C(N1CCNCC1)=Nc1ccccc1O2 in this assay.
y

// param item: COc1c(Cl)c(Cl)c(Cl)c(Cl)c1Cl ; yields the recorded call
n

Outcome? C=CC(C)(CCC=C(C)C)OC=O (stereo unspecified)
n

What classification did CCCCCCCCC=O end up with in this test?
n

Kindly provide the recorded test outcome for the following compound: COc1ccc(Cl)cc1C
n

Recorded call for O=Cc1ccc(Cl)c([N+](=O)[O-])c1 ?
n

Answer briefly: the call reported for CC(C)C1CCC(O)CC1 (stereo unspecified) in this assay.
n

Assay outcome for Clc1cccc(Cl)n1 : what was it?
n

Which outcome did this test record for the compound CC(C)=CCO ?
n

Please state the recorded outcome for this compound: CC(C)(C#N)c1cc(Cn2cncn2)cc(C(C)(C)C#N)c1
n

What classification did CCCc1ccccc1O end up with in this test?
n

# outcome recorded in this test, key = CC1CC(OC(=O)c2ccccc2O)CC(C)(C)C1 (stereo unspecified)
n

Any idea what this test logged for CC(=O)Nc1ccc(C)cc1C ?
n

Record lookup: outcome of this test for O=Cc1ccc(F)cc1 ?
n

Look up the recorded call for CSc1nc(NC2CC2)nc(NC(C)(C)C)n1 in this test.
n

For this compound, state the assay outcome: CCC(=O)/C=C/C1C(C)=CCCC1(C)C (stereo unspecified)
n

###

Assay: ATG_SREBP_CIS: Attagene CIS-FACTORIAL HepG2 Assay for human Sterol Regulatory Element Binding (SREBP) (AID 2282962)
Settings: HepG2 Attagene cis-factorial SREBP reporter, mRNA; actives raise or lower the signal
The source made the active and inactive calls. The calls were made as follows: active = hit-call score of the fitted dose curve at least 0.9, where 1 is the maximum; inactive = score below 0.9.
Thanks in advance; please answer with one of these: active, inactive

Please let me know the test result on file for CC(C)(Oc1ccc(CCNC(=O)c2ccc(Cl)cc2)cc1)C(=O)O .
inactive

Test call for this molecule, please: CCCCC[Si](OCC)(OCC)OCC
inactive

// outcome(item) with item = CCCCCC(=O)OCCc1ccccc1
inactive

In this assay, the call recorded for C=C(C)C(=O)OCCOC(=O)CC(C)=O was what?
inactive

Tell me the recorded outcome of this test for CSc1nnc(C(C)(C)C)c(=O)[nH]1 .
inactive

Hi, do you know how CC(C#N)(CCC(=O)O)N=NC(C)(C#N)CCC(=O)O (stereo not given) came out in this test?
inactive

Could you please tell me the result logged for CC(C)=CCCC(C)=CCCC(C)=CCO in this assay?
active

Status in this test for O=Nc1ccc(Nc2ccccc2)cc1 ?
active

Test call, this molecule: CCCCCCCCC
inactive

# fetch the recorded call for C=C(C)[C@@H]1CC[C@@H](C)C[C@@H]1O here
inactive

###

Biological target: Cellular tumor antigen p53 (Homo sapiens)
Assay: TOX21_p53_BLA_p4_ratio: Tox21 HCT-116 p53 Agonism Beta-lactamase Assay, Ratio, Phase 4 (AID 2283601)
Records with an inconclusive call do not appear. Active and inactive are the calls of the source. Rule for the calls: active = hit-call score of the fitted dose curve at least 0.9, where 1 is the maximum; inconclusive = response in the unintended direction; inactive = score below 0.9.
The reply should name one outcome from yes (active), no (inactive)

// param item: CCC(=O)/C=C/C1C(C)=CCCC1(C)C (configuration not stated) ; yields the recorded call
no

Recorded test call requested for CCCCCC(CO)CCC (configuration not stated)
no

Please indicate how the test categorized CCCCC(CC)COC(=O)/C=C\C(=O)OCC(CC)CCCC (configuration not stated) .
no

Test call for this compound, please: CCCCCCCCCCC(CO)CCCCCCCC (configuration not stated)
no

Test call for this compound, please: NC(N)=NC(=O)c1nc(Cl)c(N)nc1N
no

Per the assay record, what outcome was assigned to C=CC(=O)OCCn1c(=O)n(CCOC(=O)C=C)c(=O)n(CCOC(=O)C=C)c1=O ?
no

GET /call?item= C=C(C)C(=O)O returns the recorded outcome of this test.
no

// return assay outcome for C=C[C@@H](C)CCC=C(C)C
no

State the result this test recorded for CCN(CC)c1ccc2c(-c3ccccc3C(=O)O)c3ccc(=[N+](CC)CC)cc-3oc2c1 .
no

What outcome does the record of this test show for OCCN1CCNCC1 ?
no

// return assay outcome for C#C[C@]1(O)CC[C@H]2[C@@H]3CCC4=Cc5oncc5C[C@]4(C)[C@H]3CC[C@@]21C
no

How was CC(C)(C)C(=O)c1ccccc1 classified in this test?
no

Hi team, can someone confirm the assay call for C=CC(=O)OCC(O)COc1ccccc1 (configuration not stated) ?
yes

Outcome? OCCCCCO
no

Kindly provide the recorded test outcome for the following compound: CCCCOCCOCCSC#N
no

Hey, what did the test say about O=C(O)c1snc(Cl)c1Cl ?
no

Assay result, entry CCN(CC)CCOC(=O)c1ccc(N)cc1 — outcome?
no

Could you kindly confirm the outcome this assay logged for O=C[C@@H](O)[C@H](O)[C@H](O)CO ?
no

Please share the test call associated with CCCCCCCCCOC(C)=O .
no

What was the test verdict on O=C(O)Cc1cccc2ccccc12 ?
no

What did this assay record as the result for CCCCCCCCCCCCCCCC(=O)OC[C@H](O)[C@H]1OC(=O)C(O)=C1O ?
no

Please share the test call associated with C[C@]12CC[C@H]3[C@@H](CCC4=CC(=O)CC[C@@]43C)[C@@H]1CC[C@@H]2C(=O)CO .
no
